Tested on: S. epidermidis ATCC12228
Test: MIC assay (broth dilution in tubes, CLSI)
Format: cell-based, Staphylococcus epidermidis
Details: Staphylococcus epidermidis, ATCC12228; Table 2; as tested on S. epidermidis ATCC 12228; read-out: MICs
Text: Staphylococcus epidermidis ATCC12228 and RP62A strains were purchased from the American Type Culture Collection (ATCC, Manassas, USA). Staphylococcus aureus ATCC29213, Escherichia coli ATCC25922 and Pseudomonas aeruginosa ATCC27853 were kindly provided by Dr. Bijie Hu at Zhongshan Hospital (Shanghai, China). […]
Each record is given 1 if its reported MIC is strictly below 10 µM. Records at or above 10 µM are given 0.

{"Compound": "CCOC(=O)C1=C(c2ccccc2)N=c2s/c(=C/c3ccc(-c4cccc(C(O)O)c4)o3)c(=O)n2C1c1ccc2c(c1)OCO2 (stereo not drawn) [Compound 5]", "Target system": "S. epidermidis ATCC12228", "Category": 1}
{"Compound": "CCc1ccccc1N=C1SC(=Cc2ccc(OCC(O)O)c(OC)c2)C(=O)N1c1ccccc1CC [Compound 2]", "Target system": "S. epidermidis ATCC12228", "Category": 0}
{"Compound": "O=C(NNC(=O)c1c(Br)c(Br)c(Br)c(Br)c1C(O)O)c1cc(Cl)ccc1O [Compound 1]", "Target system": "S. epidermidis ATCC12228", "Category": 0}
{"Compound": "Cc1ccc(NC(=O)CN2C(=O)S/C(=C\\c3ccc(OCc4cccc(C(O)O)c4)cc3)C2=O)cc1 [Compound 7]", "Target system": "S. epidermidis ATCC12228", "Category": 1}
{"Compound": "CC(=O)Nc1ccccc1C(=O)Nc1ccc2cc3ccc(NC(=O)c4ccccc4NC(C)=O)cc3nc2c1 [Compound 3]", "Target system": "S. epidermidis ATCC12228", "Category": 0}
{"Compound": "Cc1ccc(C(O)O)cc1-c1ccc(/C=N/NC(=O)c2cc3c(ccc4ccccc43)o2)o1 [Compound 4]", "Target system": "S. epidermidis ATCC12228", "Category": 0}

* * *

target: YycG' protein (Staphylococcus epidermidis); construct: of YycG (370aa to 610aa) was amplified by PCR; His-tag (pET28a) (N); made in house; host or cells: E. coli BL21 (pET28a, pETYycG'); test: Inhibition of YycG' ATPase activity / autophosphorylation (Kinase-Glo Luminescent Kinase Assay); assay type: biochemical; details: compound 50 μM, 4 μg protein, 3 μM ATP; read-out: Inhibition of YycG' phosphorylation (decrease of ATPase activity)
Sequence (Q8CU87 370-610): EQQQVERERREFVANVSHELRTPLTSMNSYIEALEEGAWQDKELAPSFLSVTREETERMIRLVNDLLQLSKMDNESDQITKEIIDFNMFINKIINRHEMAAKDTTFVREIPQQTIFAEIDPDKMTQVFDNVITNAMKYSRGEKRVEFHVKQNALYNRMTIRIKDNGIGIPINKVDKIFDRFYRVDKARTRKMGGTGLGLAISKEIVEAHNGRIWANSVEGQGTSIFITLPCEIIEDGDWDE
inhibition at 50 µM vs 70%: at or above is condition met, below is condition not met.

{"Molecule": "CCc1ccccc1N=C1SC(=Cc2ccc(OCC(O)O)c(OC)c2)C(=O)N1c1ccccc1CC", "Category": "condition not met"}
{"Molecule": "Cc1ccc(NC(=O)CN2C(=O)S/C(=C\\c3ccc(OCc4cccc(C(O)O)c4)cc3)C2=O)cc1", "Category": "condition met"}
{"Molecule": "O=C(NNC(=O)c1c(Br)c(Br)c(Br)c(Br)c1C(O)O)c1cc(Cl)ccc1O", "Category": "condition not met"}
{"Molecule": "Cc1ccc(C(O)O)cc1-c1ccc(/C=N/NC(=O)c2cc3c(ccc4ccccc43)o2)o1", "Category": "condition met"}
{"Molecule": "CCOC(=O)C1=C(c2ccccc2)N=c2s/c(=C/c3ccc(-c4cccc(C(O)O)c4)o3)c(=O)n2C1c1ccc2c(c1)OCO2 (stereo not drawn)", "Category": "condition met"}
